tested on: Kentucky bluegrass; assay: Turf grass selectivity, greenhouse pot test; format: in vivo, Poa pratensis; details: 3 g ai/ha, 4 weeks
// phytotoxicity (visual assessment 0-10) lookup, one value per entry

COc1cc(OC)nc(NC(=O)NS(=O)(=O)c2ncccc2C(F)(F)F)n1 [Control chemical No. 2, Flazasulfuron, reference compound]    10

Which phytotoxicity (visual assessment 0-10) reading was recorded for the compound CCOC(=O)c1cnn(C)c1S(=O)(=O)NC(=O)Nc1nc(OC)cc(OC)n1 [Control chemical No. 1, Pyrazosulfuron ethyl, reference compound] ? 0

Which phytotoxicity (visual assessment 0-10) reading was recorded for the compound `COc1nc(C)nc(NC(=O)NS(=O)(=O)c2cscc2C2(CF)OCCO2)n1` ? 1

Which phytotoxicity (visual assessment 0-10) reading was recorded for the compound Cc1cc(C)nc(NC(=O)NS(=O)(=O)c2ccccc2C(O)C(C)F)n1 (stereo not shown) ? 0

---

// efficacy (0-100 scale) lookup, one value per entry
test system: Portulaca oleracea; assay: Weed spectrum, greenhouse pot test; assay type: in vivo; details: Post-emergence, 12 g ai/ha, two weeks after application

Examples with answers:
Cc1cc(C)nc(NC(=O)NS(=O)(=O)c2ccccc2C(O)C(C)F)n1 (stereo not shown) [Example 1]    70
CCOC(=O)c1cnn(C)c1S(=O)(=O)NC(=O)Nc1nc(OC)cc(OC)n1 [Control chemical No. 1, Pyrazosulfuron ethyl, reference compound]    20
COc1cc(OC)nc(NC(=O)NS(=O)(=O)c2ncccc2C(F)(F)F)n1 [Control chemical No. 2, Flazasulfuron, reference compound]    80

Query molecule follows.
Which efficacy (0-100 scale) reading was recorded for the molecule COc1nc(C)nc(NC(=O)NS(=O)(=O)c2cscc2C2(CF)OCCO2)n1 [Example 2] ? 70

---

system: Kentucky bluegrass; assay: Turf grass selectivity, greenhouse pot test; type: in vivo, Poa pratensis; conditions: 200 g ai/ha, 2 weeks
measurement_label: phytotoxicity (visual assessment 0-10)
Could you respond with only the numeric value?

Examples with answers:
CCOC(=O)c1cnn(C)c1S(=O)(=O)NC(=O)Nc1nc(OC)cc(OC)n1 [Control chemical No. 1, Pyrazosulfuron ethyl, reference compound]    1
Cc1cc(C)nc(NC(=O)NS(=O)(=O)c2ccccc2C(O)C(C)F)n1 (stereo not shown) [Example 1]    1
COc1cc(OC)nc(NC(=O)NS(=O)(=O)c2ncccc2C(F)(F)F)n1 [Control chemical No. 2, Flazasulfuron, reference compound]    10

Which phytotoxicity (visual assessment 0-10) reading was recorded for the compound COc1nc(C)nc(NC(=O)NS(=O)(=O)c2cscc2C2(CF)OCCO2)n1 [Example 2] ? 10

---

system: Zoysia japonica; test: Turf grass selectivity, greenhouse pot test; type: in vivo; settings: Zoysia japonica, 200 g ai/ha, 2 weeks
// phytotoxicity (visual assessment 0-10) lookup, one value per entry
Could you respond with only the numeric value?

For Zoysia japonica, provide phytotoxicity (visual assessment 0-10) of COc1cc(OC)nc(NC(=O)NS(=O)(=O)c2ncccc2C(F)(F)F)n1 [Control chemical No. 2, Flazasulfuron, reference compound] please. 4

---

tested on: Kentucky bluegrass; experiment: Turf grass selectivity, greenhouse pot test; assay type: in vivo, Poa pratensis; conditions: 6 g ai/ha, 4 weeks
measurement_label: phytotoxicity (visual assessment 0-10)
Could you respond with only the numeric value?

Examples with answers:
COc1nc(C)nc(NC(=O)NS(=O)(=O)c2cscc2C2(CF)OCCO2)n1 [Example 2]    3
COc1cc(OC)nc(NC(=O)NS(=O)(=O)c2ncccc2C(F)(F)F)n1 [Control chemical No. 2, Flazasulfuron, reference compound]    10
Cc1cc(C)nc(NC(=O)NS(=O)(=O)c2ccccc2C(O)C(C)F)n1 (stereo not shown) [Example 1]    0

Query compound follows.
Which phytotoxicity (visual assessment 0-10) reading was recorded for the compound CCOC(=O)c1cnn(C)c1S(=O)(=O)NC(=O)Nc1nc(OC)cc(OC)n1 [Control chemical No. 1, Pyrazosulfuron ethyl, reference compound] ? 0

---

System: Perennial rye grass
Assay: Turf grass selectivity, greenhouse pot test
Format: in vivo
Settings: 400 g ai/ha, 2 weeks
From the text: Turf mats of Zoysia grass, bentgrass, Kentucky bluegrass, or perennial rye grass known as cool season turfgrass or western grass were purchased and cut into a piece having 10 cm×20 cm size. Then, each piece was transplanted in a rectangular plastic pot (surface area of 300 cm^2) in which sandy loam and mixed top soil (Boo-Nong Top Soil No. 3, for horticultural use) are filled in 1:1 ratio. […]
measurement_label: phytotoxicity (visual assessment 0-10)
Could you respond with only the numeric value?

Examples with answers:
Cc1cc(C)nc(NC(=O)NS(=O)(=O)c2ccccc2C(O)C(C)F)n1 (stereo not shown)    1
CCOC(=O)c1cnn(C)c1S(=O)(=O)NC(=O)Nc1nc(OC)cc(OC)n1 [Control chemical No. 1, Pyrazosulfuron ethyl, reference compound]    1
COc1nc(C)nc(NC(=O)NS(=O)(=O)c2cscc2C2(CF)OCCO2)n1    10

Query compound follows.
Which phytotoxicity (visual assessment 0-10) reading was recorded for the compound COc1cc(OC)nc(NC(=O)NS(=O)(=O)c2ncccc2C(F)(F)F)n1 [Control chemical No. 2, Flazasulfuron, reference compound] ? 10

---

Test system: Zoysia japonica
Assay: Turf grass selectivity, greenhouse pot test
Assay type: in vivo
Conditions: Zoysia japonica, 50 g ai/ha, 4 weeks
Text: Turf mats of Zoysia grass, bentgrass, Kentucky bluegrass, or perennial rye grass known as cool season turfgrass or western grass were purchased and cut into a piece having 10 cm×20 cm size. Then, each piece was transplanted in a rectangular plastic pot (surface area of 300 cm^2) in which sandy loam and mixed top soil (Boo-Nong Top Soil No. 3, for horticultural use) are filled in 1:1 ratio. […]
measurement_label: phytotoxicity (visual assessment 0-10)

Examples with answers:
Cc1cc(C)nc(NC(=O)NS(=O)(=O)c2ccccc2C(O)C(C)F)n1 (stereo not shown)    0
CCOC(=O)c1cnn(C)c1S(=O)(=O)NC(=O)Nc1nc(OC)cc(OC)n1 [Control chemical No. 1, Pyrazosulfuron ethyl, reference compound]    0
COc1nc(C)nc(NC(=O)NS(=O)(=O)c2cscc2C2(CF)OCCO2)n1    0

Which phytotoxicity (visual assessment 0-10) reading was recorded for the molecule COc1cc(OC)nc(NC(=O)NS(=O)(=O)c2ncccc2C(F)(F)F)n1 [Control chemical No. 2, Flazasulfuron, reference compound] ? 1

---

tested on: Kentucky bluegrass; assay: Turf grass selectivity, greenhouse pot test; type: in vivo, Poa pratensis; conditions: 50 g ai/ha, 4 weeks
measurement_label: phytotoxicity (visual assessment 0-10)

Examples with answers:
CCOC(=O)c1cnn(C)c1S(=O)(=O)NC(=O)Nc1nc(OC)cc(OC)n1 [Control chemical No. 1, Pyrazosulfuron ethyl, reference compound]    0
Cc1cc(C)nc(NC(=O)NS(=O)(=O)c2ccccc2C(O)C(C)F)n1 (stereo not shown)    0

Which phytotoxicity (visual assessment 0-10) reading was recorded for the compound COc1cc(OC)nc(NC(=O)NS(=O)(=O)c2ncccc2C(F)(F)F)n1 [Control chemical No. 2, Flazasulfuron, reference compound] ? 10

Which phytotoxicity (visual assessment 0-10) reading was recorded for the compound `COc1nc(C)nc(NC(=O)NS(=O)(=O)c2cscc2C2(CF)OCCO2)n1` ? 10

---

// phytotoxicity (visual assessment 0-10) lookup, one value per entry
Tested on: Zoysia japonica
Assay: Turf grass selectivity, greenhouse pot test
Format: in vivo
Details: Zoysia japonica, 50 g ai/ha, 2 weeks
Description: Turf mats of Zoysia grass, bentgrass, Kentucky bluegrass, or perennial rye grass known as cool season turfgrass or western grass were purchased and cut into a piece having 10 cm×20 cm size. Then, each piece was transplanted in a rectangular plastic pot (surface area of 300 cm^2) in which sandy loam and mixed top soil (Boo-Nong Top Soil No. 3, for horticultural use) are filled in 1:1 ratio. […]
Could you respond with only the numeric value?

Cc1cc(C)nc(NC(=O)NS(=O)(=O)c2ccccc2C(O)C(C)F)n1 (stereo not shown)    0
COc1nc(C)nc(NC(=O)NS(=O)(=O)c2cscc2C2(CF)OCCO2)n1    0
COc1cc(OC)nc(NC(=O)NS(=O)(=O)c2ncccc2C(F)(F)F)n1 [Control chemical No. 2, Flazasulfuron, reference compound]    1

Which phytotoxicity (visual assessment 0-10) reading was recorded for the molecule CCOC(=O)c1cnn(C)c1S(=O)(=O)NC(=O)Nc1nc(OC)cc(OC)n1 [Control chemical No. 1, Pyrazosulfuron ethyl, reference compound] ? 0

---

// phytotoxicity (visual assessment 0-10) lookup, one value per entry
system: Kentucky bluegrass; experiment: Turf grass selectivity, greenhouse pot test; type: in vivo, Poa pratensis; conditions: 400 g ai/ha, 2 weeks

Cc1cc(C)nc(NC(=O)NS(=O)(=O)c2ccccc2C(O)C(C)F)n1 (stereo not shown) [Example 1]    2

Which phytotoxicity (visual assessment 0-10) reading was recorded for the molecule COc1cc(OC)nc(NC(=O)NS(=O)(=O)c2ncccc2C(F)(F)F)n1 [Control chemical No. 2, Flazasulfuron, reference compound] ? 10

Which phytotoxicity (visual assessment 0-10) reading was recorded for the molecule CCOC(=O)c1cnn(C)c1S(=O)(=O)NC(=O)Nc1nc(OC)cc(OC)n1 [Control chemical No. 1, Pyrazosulfuron ethyl, reference compound] ? 2

Which phytotoxicity (visual assessment 0-10) reading was recorded for the molecule COc1nc(C)nc(NC(=O)NS(=O)(=O)c2cscc2C2(CF)OCCO2)n1 [Example 2] ? 10
